Target: 12-lipoxygenase (Homo sapiens, UniProt P18054)
Construct: 12-lipoxygenase obtained from human platelets; from tissue; host or cells: human platelets
Sequence (P18054 whole entry): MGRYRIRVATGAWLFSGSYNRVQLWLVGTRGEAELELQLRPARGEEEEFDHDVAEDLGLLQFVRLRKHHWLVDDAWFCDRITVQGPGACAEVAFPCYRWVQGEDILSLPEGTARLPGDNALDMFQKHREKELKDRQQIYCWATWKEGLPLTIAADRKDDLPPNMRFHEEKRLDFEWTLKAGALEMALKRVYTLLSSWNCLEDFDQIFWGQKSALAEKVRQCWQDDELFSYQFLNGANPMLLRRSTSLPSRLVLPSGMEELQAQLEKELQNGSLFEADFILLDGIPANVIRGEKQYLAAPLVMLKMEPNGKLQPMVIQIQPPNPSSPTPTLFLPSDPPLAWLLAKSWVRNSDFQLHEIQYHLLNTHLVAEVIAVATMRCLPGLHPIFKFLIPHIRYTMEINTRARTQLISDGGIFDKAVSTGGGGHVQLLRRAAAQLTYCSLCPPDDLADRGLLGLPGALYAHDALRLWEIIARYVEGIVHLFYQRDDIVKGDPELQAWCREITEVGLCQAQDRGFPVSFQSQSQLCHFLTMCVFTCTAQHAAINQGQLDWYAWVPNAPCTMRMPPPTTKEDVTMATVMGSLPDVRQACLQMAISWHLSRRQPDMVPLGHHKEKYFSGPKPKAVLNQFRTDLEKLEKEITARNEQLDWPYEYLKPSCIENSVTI
Experiment: 12-lipoxygenase inhibition, enzyme obtained from human platelets
Format: biochemical
Settings: 10 uM; read-out: Percent Inhibition, 12-Lipoxygenase
Method: The compounds of this invention are potent inhibitors of 5-, 12-, and 15-lipoxygenases. […] Reaction products were separated from nonconverted substrate by thin layer chromatography and measured by liquid scintillation spectroscopy. Inhibition of 5-lipoxygenase activity was calculated as the 50% intercept from linear regression analysis of percentage inhibition versus log concentration plots. […]
recorded.metric: inhibition at 10 µM (%)
Write the number in % without appending the unit.

1. O=c1c2ccccc2c2ccccc2n1O [Example 15, 3,4-Benzo-1-hydroxyquinol-2(1H)-one]: 96
2. COc1ccc2c(ccc(=O)n2O)c1 [Example 10, 6-Methoxy-1-hydroxyquinol-2-(1H)-one]: 90
3. O=c1ccc2ccccc2n1O [Example 1, 1-hydroxyquinol-2-(1H)-one]: 93
4. CC(C)c1cc2ccccc2n(O)c1=O [Example 16, 3-Isopropyl-1-hydroxy-quinol-2(1H)--one]: 93
5. O=c1c2ccccc2c([N+](=O)[O-])cn1O [Example 30, 4-Nitro-2-hydroxyquinol-1(2H)-one]: 54

Please report the recorded inhibition at 10 µM for O=c1ccc2cc([N+](=O)[O-])ccc2n1O [Example 11, 6-Nitro-1-hydroxyquinol-2(1H)-one] .
67

Here is the next compound: O=c1c2ccccc2c(-c2ccccc2)cn1O [Example 31, 4-Phenyl-2-hydroxyquinol-1(2H)-one]
95

Entry `COc1ccc2ccn(O)c(=O)c2c1` please
90

// data source = patent US4761403A
